The origin of these recorded values is the NIST ThermoML archive (doi:10.1016/j.jct.2018.08.014).

- protocol description: molar heat capacity at constant pressure
- experimental setup: 287 K; 101.33 kPa; Liquid; DSC
observable: molar heat capacity at constant pressure (J/K/mol)

compound | molar heat capacity at constant pressure (J/K/mol)
CCCCCCCCCCC(=O)OC [methyl undecanoate] | 385.77
CCCCCCCCCC(=O)OCC [ethyl decanoate] | 379.95
CCCCCCCC(=O)OCCCC [butyl octanoate] | 391.59
CCCCCCCCOC(=O)CCC [octyl butanoate] | 378.29
CCCCCCOC(=O)CCCCC [hexanoic acid, hexyl ester] | 390.76

* * *

- protocol description: molar heat capacity at constant pressure
- experimental setup: 299 K; 101.33 kPa; Liquid; DSC
observable: molar heat capacity at constant pressure (J/K/mol)

compound | molar heat capacity at constant pressure [J/K/mol]
CCCCCCOC(=O)CCCCC [hexanoic acid, hexyl ester] | 394.92
CCCCCCCCCC(=O)OCC [ethyl decanoate] | 384.11
CCCCCCCCCCC(=O)OC [methyl undecanoate] | 385.77
CCCCCCCCOC(=O)CCC [octyl butanoate] | 384.11
CCCCCCCC(=O)OCCCC [butyl octanoate] | 397.41

* * *

- protocol description: molar heat capacity at constant pressure
- experimental setup: 303 K; 101.33 kPa; Liquid; DSC
observable: molar heat capacity at constant pressure (J/K/mol)

compound | molar heat capacity at constant pressure [J/K/mol]
CCCCCCOC(=O)CCCCC [hexanoic acid, hexyl ester] | 397.41
CCCCCCCCOC(=O)CCC [octyl butanoate] | 385.77
CCCCCCCCCC(=O)OCC [ethyl decanoate] | 385.77
CCCCCCCC(=O)OCCCC [butyl octanoate] | 399.07
CCCCCCCCCCC(=O)OC [methyl undecanoate] | 389.93

* * *

- protocol description: molar heat capacity at constant pressure
- experimental setup: 263 K; 101.33 kPa; Liquid; DSC
observable: molar heat capacity at constant pressure (J/K/mol)

compound | molar heat capacity at constant pressure (J/K/mol)
CCCCCCOC(=O)CCCCC | 385.77
CCCCCCCCOC(=O)CCC [octyl butanoate] | 373.3
CCCCCCCCCC(=O)OCC [ethyl decanoate] | 375.79
CCCCCCCC(=O)OCCCC [butyl octanoate] | 386.6

* * *

- protocol description: molar heat capacity at constant pressure
- experimental setup: 291 K; 101.33 kPa; Liquid; DSC
observable: molar heat capacity at constant pressure (J/K/mol)

molecule | molar heat capacity at constant pressure [J/K/mol]
CCCCCCCCCC(=O)OCC [ethyl decanoate] | 380.78
CCCCCCCCCCC(=O)OC [methyl undecanoate] | 384.11
CCCCCCCC(=O)OCCCC [butyl octanoate] | 394.08
CCCCCCOC(=O)CCCCC | 392.42
CCCCCCCCOC(=O)CCC [octyl butanoate] | 379.95

* * *

- protocol description: molar heat capacity at constant pressure
- experimental setup: 295 K; 101.33 kPa; Liquid; DSC
observable: molar heat capacity at constant pressure (J/K/mol)

compound | unit annotation | observed
CCCCCCCCCC(=O)OCC [ethyl decanoate] | J/K/mol | 382.44
CCCCCCCC(=O)OCCCC [butyl octanoate] | J/K/mol | 395.75
CCCCCCCCCCC(=O)OC [methyl undecanoate] | J/K/mol | 384.94
CCCCCCOC(=O)CCCCC | J/K/mol | 394.08
CCCCCCCCOC(=O)CCC [octyl butanoate] | J/K/mol | 381.61

* * *

- protocol description: molar heat capacity at constant pressure
- experimental setup: 269 K; 101.33 kPa; Liquid; DSC
observable: molar heat capacity at constant pressure (J/K/mol)

compound | observable | observed
CCCCCCOC(=O)CCCCC | molar heat capacity at constant pressure | 385.77
CCCCCCCCCC(=O)OCC [ethyl decanoate] | molar heat capacity at constant pressure | 375.79
CCCCCCCC(=O)OCCCC [butyl octanoate] | molar heat capacity at constant pressure | 386.6
CCCCCCCCOC(=O)CCC [octyl butanoate] | molar heat capacity at constant pressure | 374.13

* * *

- protocol description: molar heat capacity at constant pressure
- experimental setup: 265 K; 101.33 kPa; Liquid; DSC
observable: molar heat capacity at constant pressure (J/K/mol)

compound | observable | unit annotation | observed
CCCCCCOC(=O)CCCCC | molar heat capacity at constant pressure | J/K/mol | 385.77
CCCCCCCCCC(=O)OCC [ethyl decanoate] | molar heat capacity at constant pressure | J/K/mol | 375.79
CCCCCCCC(=O)OCCCC [butyl octanoate] | molar heat capacity at constant pressure | J/K/mol | 386.6
CCCCCCCCOC(=O)CCC [octyl butanoate] | molar heat capacity at constant pressure | J/K/mol | 373.3

* * *

- protocol description: molar heat capacity at constant pressure
- experimental setup: 273 K; 101.33 kPa; Liquid; DSC
observable: molar heat capacity at constant pressure (J/K/mol)

compound | molar heat capacity at constant pressure, J/K/mol
CCCCCCCCCCC(=O)OC [methyl undecanoate] | 381.61
CCCCCCCCOC(=O)CCC [octyl butanoate] | 373.3
CCCCCCOC(=O)CCCCC [hexanoic acid, hexyl ester] | 384.94
CCCCCCCC(=O)OCCCC [butyl octanoate] | 386.6
CCCCCCCCCC(=O)OCC [ethyl decanoate] | 374.96

* * *

- protocol description: molar heat capacity at constant pressure
- experimental setup: 297 K; 101.33 kPa; Liquid; DSC
observable: molar heat capacity at constant pressure (J/K/mol)

compound | observable | observed
CCCCCCCCCC(=O)OCC [ethyl decanoate] | molar heat capacity at constant pressure | 383.28
CCCCCCCCCCC(=O)OC [methyl undecanoate] | molar heat capacity at constant pressure | 385.77
CCCCCCCC(=O)OCCCC [butyl octanoate] | molar heat capacity at constant pressure | 396.58
CCCCCCOC(=O)CCCCC | molar heat capacity at constant pressure | 394.92
CCCCCCCCOC(=O)CCC [octyl butanoate] | molar heat capacity at constant pressure | 383.28

* * *

- protocol description: molar heat capacity at constant pressure
- experimental setup: 277 K; 101.33 kPa; Liquid; DSC
observable: molar heat capacity at constant pressure (J/K/mol)

compound | molar heat capacity at constant pressure, J/K/mol
CCCCCCCCCCC(=O)OC [methyl undecanoate] | 384.11
CCCCCCCCOC(=O)CCC [octyl butanoate] | 373.3
CCCCCCOC(=O)CCCCC [hexanoic acid, hexyl ester] | 385.77
CCCCCCCCCC(=O)OCC [ethyl decanoate] | 374.96
CCCCCCCC(=O)OCCCC [butyl octanoate] | 386.6

* * *

- protocol description: molar heat capacity at constant pressure
- experimental setup: 285 K; 101.33 kPa; Liquid; DSC
observable: molar heat capacity at constant pressure (J/K/mol)

compound | unit annotation | molar heat capacity at constant pressure
CCCCCCCC(=O)OCCCC [butyl octanoate] | J/K/mol | 391.59
CCCCCCOC(=O)CCCCC [hexanoic acid, hexyl ester] | J/K/mol | 389.93
CCCCCCCCOC(=O)CCC [octyl butanoate] | J/K/mol | 377.46
CCCCCCCCCCC(=O)OC [methyl undecanoate] | J/K/mol | 382.44
CCCCCCCCCC(=O)OCC [ethyl decanoate] | J/K/mol | 379.95

* * *

- protocol description: molar heat capacity at constant pressure
- experimental setup: 281 K; 101.33 kPa; Liquid; DSC
observable: molar heat capacity at constant pressure (J/K/mol)

molecule | observed
CCCCCCCC(=O)OCCCC [butyl octanoate] | 389.1
CCCCCCCCOC(=O)CCC [octyl butanoate] | 375.79
CCCCCCCCCCC(=O)OC [methyl undecanoate] | 381.61
CCCCCCCCCC(=O)OCC [ethyl decanoate] | 378.29
CCCCCCOC(=O)CCCCC [hexanoic acid, hexyl ester] | 387.43

* * *

- protocol description: molar heat capacity at constant pressure
- experimental setup: 271 K; 101.33 kPa; Liquid; DSC
observable: molar heat capacity at constant pressure (J/K/mol)

molecule | molar heat capacity at constant pressure [J/K/mol]
CCCCCCCCOC(=O)CCC [octyl butanoate] | 374.13
CCCCCCCCCC(=O)OCC [ethyl decanoate] | 375.79
CCCCCCOC(=O)CCCCC [hexanoic acid, hexyl ester] | 385.77
CCCCCCCC(=O)OCCCC [butyl octanoate] | 386.6

* * *

- protocol description: molar heat capacity at constant pressure
- experimental setup: 275 K; 101.33 kPa; Liquid; DSC
observable: molar heat capacity at constant pressure (J/K/mol)

compound | observed
CCCCCCCCCCC(=O)OC [methyl undecanoate] | 381.61
CCCCCCOC(=O)CCCCC | 384.94
CCCCCCCCCC(=O)OCC [ethyl decanoate] | 374.13
CCCCCCCCOC(=O)CCC [octyl butanoate] | 373.3
CCCCCCCC(=O)OCCCC [butyl octanoate] | 386.6

* * *

- protocol description: molar heat capacity at constant pressure
- experimental setup: 283 K; 101.33 kPa; Liquid; DSC
observable: molar heat capacity at constant pressure (J/K/mol)

compound | observable | observed
CCCCCCCC(=O)OCCCC [butyl octanoate] | molar heat capacity at constant pressure | 390.76
CCCCCCCCCCC(=O)OC [methyl undecanoate] | molar heat capacity at constant pressure | 382.44
CCCCCCCCCC(=O)OCC [ethyl decanoate] | molar heat capacity at constant pressure | 379.12
CCCCCCCCOC(=O)CCC [octyl butanoate] | molar heat capacity at constant pressure | 376.62
CCCCCCOC(=O)CCCCC [hexanoic acid, hexyl ester] | molar heat capacity at constant pressure | 389.1
